# Test system: Yap1 mRNA
# test: Antisense inhibition of human Yap1 in A-431 cells by cEt gapmers, single dose (Example 1, RTS4814)
# Format: cell-based
# condition-details: Table 1; A-431 cells, free uptake, 2,000 nM, approximately 48 hours, RTS4814; Yap1 mRNA relative to untreated control cells
Strand notation (5' to 3'): a small letter for the sugar, then the base; units joined by * are phosphorothioate-linked, units joined directly phosphodiester-linked; [ ] holds rarer units or linkages, { } end groups; capitals alone tell only the bases. k = constrained ethyl (cEt); [5mC] = 5-methylcytosine; d = 2'-deoxy (DNA)
Each entry gets condition not met if its YAP1 (% UTC) stays under 80 % UTC, and condition met if its YAP1 (% UTC) is 80 % UTC or above.

>>> print(df.to_string())
                                   substance  system_name     assigned_label
 0  715535 (k[5mC]*kT*kA*dT*dT*dA*dA*dG*d[5mC]*dT*dG*dT*dT*kT*kA*kA; antisense) [Compound 715535]    Yap1 mRNA      condition met
 1  715469 (antisense kT*kA*kG*d[5mC]*dT*dT*dG*dG*dT*dG*dG*d[5mC]*dA*kG*k[5mC]*k[5mC]) [Compound 715469]    Yap1 mRNA      condition met
 2  715424 (kT*kG*k[5mC]*d[5mC]*dA*dT*dG*dT*dT*dG*dT*dT*dG*kT*k[5mC]*kT; antisense) [Compound 715424]    Yap1 mRNA  condition not met
 3  715613 (antisense kA*kT*kT*dA*d[5mC]*dT*dT*dT*dA*dA*dG*d[5mC]*d[5mC]*kA*k[5mC]*kA) [Compound 715613]    Yap1 mRNA      condition met
 4  715499 (antisense kT*kA*kT*dG*dA*dA*d[5mC]*d[5mC]*d[5mC]*dT*dT*dG*dA*kA*kA*kA) [Compound 715499]    Yap1 mRNA      condition met
 5  715577 (kG*k[5mC]*kA*dT*dT*d[5mC]*dA*d[5mC]*dA*dG*dA*dG*dT*kT*kA*kA; antisense) [Compound 715577]    Yap1 mRNA  condition not met
 6  715511 (antisense kT*k[5mC]*k[5mC]*dT*dG*dA*d[5mC]*dA*dT*dT*dT*dT*dG*kG*kA*kG) [Compound 715511]    Yap1 mRNA      condition met
 7  715571 (kA*kA*kA*dA*dT*d[5mC]*d[5mC]*dT*dG*d[5mC]*d[5mC]*dA*dA*k[5mC]*kA*kT; antisense) [Compound 715571]    Yap1 mRNA      condition met
 8  715457 (antisense kA*kG*kA*dG*dT*dG*dA*dT*dA*dG*dG*dT*dG*k[5mC]*k[5mC]*kA) [Compound 715457]    Yap1 mRNA  condition not met
 9  715520 (kT*kT*k[5mC]*dT*dT*dT*d[5mC]*d[5mC]*dA*d[5mC]*dT*d[5mC]*dA*kA*kG*kT; antisense) [Compound 715520]    Yap1 mRNA      condition met
10  715568 (kA*kA*kG*dG*dT*dA*dG*dG*dA*dT*dA*dA*dA*kT*kG*kA; antisense) [Compound 715568]    Yap1 mRNA      condition met
11  715442 (antisense k[5mC]*kA*k[5mC]*dT*dG*dG*dA*dG*d[5mC]*dA*d[5mC]*dT*d[5mC]*kT*kG*kA) [Compound 715442]    Yap1 mRNA  condition not met
12  715625 (antisense kA*kT*kT*dG*d[5mC]*d[5mC]*dT*dA*dA*dG*dA*dG*dT*kA*kA*kA) [Compound 715625]    Yap1 mRNA      condition met
13  715508 (antisense k[5mC]*kT*kG*dT*dG*d[5mC]*dT*dG*dG*dG*dA*dT*dT*kG*kA*kT) [Compound 715508]    Yap1 mRNA  condition not met
14  715403 (kG*kA*kA*dG*dG*dA*dG*dT*d[5mC]*dG*dG*dG*d[5mC]*kA*kG*k[5mC]; antisense) [Compound 715403]    Yap1 mRNA  condition not met
15  715460 (antisense kA*kT*k[5mC]*dT*d[5mC]*dG*dA*dG*dA*dG*dT*dG*dA*kT*kA*kG) [Compound 715460]    Yap1 mRNA      condition met
16  715559 (k[5mC]*kT*kG*d[5mC]*d[5mC]*dA*dT*dT*dT*dA*dA*dG*dA*kA*kA*kT; antisense) [Compound 715559]    Yap1 mRNA      condition met
17  715430 (kA*kT*k[5mC]*d[5mC]*dT*dG*dA*dG*dT*d[5mC]*dA*dT*dG*kG*k[5mC]*kT; antisense) [Compound 715430]    Yap1 mRNA      condition met

---

# Tested on: Yap1 mRNA
# test: Antisense inhibition of human Yap1 in A-431 cells by cEt gapmers, single dose (Example 2, RTS4814)
# Format: cell-based
# condition-details: Table 21; Yap1 mRNA, percent of untreated control; 3-10-3 cEt gapmers targeting SEQ ID NO.: 1 and 2
Strand notation (5' to 3'): a small letter for the sugar, then the base; units joined by * are phosphorothioate-linked, units joined directly phosphodiester-linked; [ ] holds rarer units or linkages, { } end groups; capitals alone tell only the bases. k = constrained ethyl (cEt); [5mC] = 5-methylcytosine; d = 2'-deoxy (DNA)
test-readout: YAP1 (% UTC)

>>> df
                                  substance  result_unit  meas_value
0  1075079 (antisense k[5mC]*kA*k[5mC]*d[5mC]*dA*dA*dA*dA*dG*d[5mC]*dT*dT*dA*kG*kT*kT) [Compound 1075079]        % UTC          40
1  1074311 (antisense kT*kT*k[5mC]*d[5mC]*dG*d[5mC]*dA*dT*dT*dG*d[5mC]*d[5mC]*dT*kG*kT*kG) [Compound 1074311]        % UTC          24
2  1074183 (antisense k[5mC]*k[5mC]*kG*dG*dT*dT*dG*dA*dG*dG*d[5mC]*dG*dG*k[5mC]*kG*kG) [Compound 1074183]        % UTC          90
3  1075975 (kG*kG*kA*dA*dA*dA*dA*dA*dA*dT*dT*d[5mC]*d[5mC]*kG*k[5mC]*kA; antisense) [Compound 1075975]        % UTC          84
4  1076327 (kG*kA*kT*dA*dA*dG*d[5mC]*dA*dA*dG*dG*dT*dT*k[5mC]*kT*k[5mC]; antisense) [Compound 1076327]        % UTC           7
5  1076455 (antisense kA*k[5mC]*kT*dA*dA*dA*dT*dA*d[5mC]*dT*dT*dT*dT*kA*kG*k[5mC]) [Compound 1076455]        % UTC          86
6  1075143 (antisense k[5mC]*k[5mC]*kT*dT*dA*dT*dT*dA*dG*dT*d[5mC]*dA*dG*kT*kT*k[5mC]) [Compound 1075143]        % UTC           2
7  1076551 (antisense kG*kT*kG*dG*dA*dA*dT*dA*dG*d[5mC]*dA*dG*d[5mC]*k[5mC]*kA*kT) [Compound 1076551]        % UTC          67
8  1074951 (antisense k[5mC]*kA*kT*d[5mC]*dA*dG*dG*dT*dT*dA*dA*dG*dT*kG*kA*kT) [Compound 1074951]        % UTC          85
9  1075687 (kT*kA*kA*dA*d[5mC]*dG*dA*dG*dT*dA*dA*dT*dG*kA*k[5mC]*kT; antisense) [Compound 1075687]        % UTC          23

---

Readings of YAP1 (% UTC) for the listed substances
# System: Yap1 mRNA
# test: Antisense inhibition of human Yap1 in A-431 cells by cEt gapmers, single dose (Example 2, RTS4814)
# Assay type: cell-based
# condition-details: Table 20; Yap1 mRNA, percent of untreated control; 3-10-3 cEt gapmers targeting SEQ ID NO.: 1 and 2
Strand notation (5' to 3'): a small letter for the sugar, then the base; units joined by * are phosphorothioate-linked, units joined directly phosphodiester-linked; [ ] holds rarer units or linkages, { } end groups; capitals alone tell only the bases. k = constrained ethyl (cEt); [5mC] = 5-methylcytosine; d = 2'-deoxy (DNA)
test-readout: YAP1 (% UTC)

                                   substance  test_readout  meas_value
 0  1076070 (kA*kT*kT*dA*dG*dT*dA*dA*dT*dG*d[5mC]*dA*d[5mC]*kA*kG*kG; antisense) [Compound 1076070]  YAP1 (% UTC)     6 % UTC
 1  1076166 (kA*kT*kT*dT*dA*d[5mC]*dA*d[5mC]*d[5mC]*dA*d[5mC]*d[5mC]*dG*k[5mC]*k[5mC]*k[5mC]; antisense) [Compound 1076166]  YAP1 (% UTC)    77 % UTC
 2  1074950 (antisense kA*kT*k[5mC]*dA*dG*dG*dT*dT*dA*dA*dG*dT*dG*kA*kT*kT) [Compound 1074950]  YAP1 (% UTC)   120 % UTC
 3  1076518 (antisense kG*kA*kT*dA*dA*dG*d[5mC]*dA*d[5mC]*d[5mC]*dA*d[5mC]*d[5mC]*kA*kT*kA) [Compound 1076518]  YAP1 (% UTC)    25 % UTC
 4  1074502 (kA*kA*k[5mC]*dT*dA*d[5mC]*dA*dA*dT*dA*dA*d[5mC]*d[5mC]*kA*kT*k[5mC]; antisense) [Compound 1074502]  YAP1 (% UTC)    31 % UTC
 5  1074150 (antisense kG*kG*k[5mC]*d[5mC]*dG*dA*dG*dG*dT*dG*dG*dA*dG*kA*kA*kG) [Compound 1074150]  YAP1 (% UTC)    85 % UTC
 6  1074310 (antisense kT*k[5mC]*k[5mC]*dG*d[5mC]*dA*dT*dT*dG*d[5mC]*d[5mC]*dT*dG*kT*kG*kG) [Compound 1074310]  YAP1 (% UTC)   100 % UTC
 7  1074918 (antisense kT*k[5mC]*kA*dA*dG*dT*dT*dA*d[5mC]*dA*dT*d[5mC]*d[5mC]*k[5mC]*kG*kA) [Compound 1074918]  YAP1 (% UTC)    60 % UTC
 8  1075078 (antisense k[5mC]*kA*kA*d[5mC]*dT*dA*dT*dA*d[5mC]*dG*dG*dT*d[5mC]*k[5mC]*kA*kT) [Compound 1075078]  YAP1 (% UTC)     3 % UTC
 9  1075750 (k[5mC]*kA*kA*dT*dT*dA*dT*dG*dA*dA*dT*dG*dA*kT*kG*kG; antisense) [Compound 1075750]  YAP1 (% UTC)    10 % UTC
10  1075590 (k[5mC]*kA*kT*d[5mC]*dA*dA*dA*dA*dT*dT*dA*dG*d[5mC]*kA*kG*kG; antisense) [Compound 1075590]  YAP1 (% UTC)    50 % UTC
